Listed below: melting point values for each entry.
result-type: melting point

compound=CC(C)(C)OC(=O)N1CCc2c(cccc2C(=O)c2cc(Cl)ccc2N)C1 val="159 to 160 °C"
compound="COc1ccc(C2C(N=[N+]=[N-])C(=O)N2c2ccc(C(=O)O)cc2)cc1 (stereo unspecified)" val="127 to 129 °C"
compound=Cc1ncn(Nc2cccc(Cl)c2)c1-c1cccc(Cl)c1 val="168 °C"
compound=CN1CCN(C(=O)Cn2c(=O)sc3ncc(Cl)cc32)CC1 val="198 to 200 °C"
compound=Cc1c(C(=O)Nc2ccc(N3CCN(C4CCOCC4)CC3)c(C#N)c2)cnn1-c1ccccc1 val="227 °C"
compound=COc1ccc2cc(-c3nccn3C)ccc2n1 val="116 to 118 °C"
compound=N#Cc1nn(-c2c(Cl)cc(C(F)(F)F)cc2Cl)cc1C=C(Cl)Cl val="99 to 101 °C"
compound=CCCCCCCCOC(=O)c1cc(=O)c2c3c(ccc2o1)-c1ccc(Cl)cc1C(C)(C)O3 val="111 to 113 °C"
compound=O=C(CCCc1ccccc1)c1cc(O)c(O)c([N+](=O)[O-])c1 val="118 to 119 °C"
compound=Cc1nc(-n2cc(C(=O)NCc3ccccc3)nn2)sc1C(=O)NCc1ccccc1 val="178 to 180 °C"
compound="NC(=O)c1cn(C(CO)CCc2cccc3ccccc23)cn1 (stereo unspecified)" val="138 to 140 °C"
compound=Cc1ccc(NS(=O)(=O)c2ccccc2)c(C(=O)O)c1 val="197 to 198 °C"
compound=Cn1c(/C=C/C(=O)O)c(-c2ccccc2)c2ccccc2c1=O val="266 to 268 °C"
compound=Cc1cc(-c2cccc3[nH]ccc23)nc(N)n1 val="242 to 244 °C"
compound=CC(=O)ON(CCOc1ccc2c(c1)CCN(CCCc1ccc(F)cc1)C2=O)C(N)=O val="113 to 114 °C"
compound="CCC1(O)CCC2(C)C(CCC3C4CCC(C(C)=O)C4(C)CC(=O)C32)C1 (stereo unspecified)" val="129 °C"
compound=Nc1ccc(CC(=O)O)cc1Br val="139 to 140 °C"
compound=O=C(C(=O)c1ccc(F)c(CF)c1)c1ccc(OC(F)F)cc1 val="68 to 70 °C"
compound=COc1ccc(S(=O)(=O)NCCc2ccc(CC(=O)O)cc2)cc1 val="160 to 162 °C"
compound=CC(=O)N1CCOc2c(C(=O)O)cc(Cl)cc21 val="76 to 77 °C"
compound=COCCCOc1ccc(CCCOC(=O)NS(=O)(=O)NCCOC(C)C)c(Oc2ncc(C(F)(F)F)cc2Cl)c1 val="67.4 to 68 °C"
compound=OCc1ccc(-c2ccccc2-c2nnnn2C(c2ccccc2)(c2ccccc2)c2ccccc2)cc1 val="167 °C"
compound=CN[C@@H](CC(C)C)C(=O)N[C@@H](Cc1ccccc1)C(N)=O val="136 to 138 °C"
compound="CC(C)(C)OC(=O)NC1CCCC(NC(=O)c2ccc(-c3[nH]nc4c3C(=O)c3c(NC(=O)NN5CCOCC5)cccc3-4)s2)C1 (stereo unspecified)" val="> 300 °C"
compound=Cc1ncccc1Cn1nnnc1-c1cc(Cl)ccc1Cl val="172 to 174 °C"
compound="CC12CC(NC(=O)OCC(Cl)(Cl)Cl)C3C(CCC4CC(O)CCC43C)C1CCC2C(=O)O (stereo unspecified)" val="212 to 220 °C"
compound=CC(C)CNc1cc2nnnn2c2cnccc12 val="220 to 221 °C"
compound="CCOC(=O)C1=C(C)Nc2ccnc(OC(C)C)c2C1c1ccccc1 (stereo unspecified)" val="136 to 137 °C"
compound="CON1CCC(C2NC(=O)C(c3c(C)cc(C)cc3C)=C2O)CC1 (stereo unspecified)" val="206 to 209 °C"
compound="CCC1Oc2cc(C(=O)OC)ccc2NC1=O (stereo unspecified)" val="132 to 134 °C"
compound=CC(=O)Nc1cccc(C=Cc2nc3c(c(=O)n(C)c(=O)n3C)n2C)c1 val="> 300 °C"
compound="COc1cc(OC)nc(NC(=O)NS(=O)(=O)c2ncccc2C(O)CF)n1 (stereo unspecified)" val="119 to 120 °C"
compound="CC(=O)NCC1CN(c2ccc(N3CCN(c4nc(=O)n(-c5ccccc5)s4)CC3)c(F)c2)C(=O)O1 (stereo unspecified)" val="245 to 247 °C"
compound=N=C(N)c1nc2c(s1)CCc1c-2sc2ncnn12 val="> 300 °C"
compound=CC(C)(C)OC(=O)c1nc2ccc(NCCCN3CCC(OC(c4ccccc4)c4ccccc4)CC3)nn2n1 val="133 to 135 °C"
compound=COC(=O)c1ccc(Oc2ccc3c(c2)CCN(C2CCN(C4CCC4)CC2)C3=O)cc1 val="269 to 270 °C"
compound=O=c1[nH]c2cc(Cl)ccc2n1CCCN1CCC(O)(c2ccc(Cl)cc2)CC1 val="191 °C"
compound="CCCCCCC(N)C(C)O (stereo unspecified)" val="81 to 86 °C"
compound=CCCCc1nc2c(N)nc3cccnc3c2n1CCCC(C)=NOC val="132 to 134 °C"
compound=Cc1ccc([C@H]2Sc3cc(C)ccc3NC(=O)[C@H]2O)cc1 val="212 to 214 °C"
compound="O=C(NC(=O)C(Br)CBr)Nc1ccc(Cl)cc1 (stereo unspecified)" val="162 to 163 °C"

====

Reported melting point values for the following compounds.
result-type: melting point

compound=CN1C(=O)[C@H](NC(=O)COc2ccc(Cl)cc2Cl)N=C(c2ccccc2)c2ccccc21 result_type="melting point" val="206 °C"
compound=O=c1[nH]c2cscc2c(=O)c2cscc12 result_type="melting point" val="267 to 270 °C"
compound=CCCC(=O)c1cnc2c(OC)cccc2c1Nc1ccsc1CC result_type="melting point" val="119 to 121 °C"
compound="O=C1c2cc(O)ccc2OCC1Oc1ccccc1 (stereo not drawn)" result_type="melting point" val="142 to 146 °C"
compound=O=[N+]([O-])c1cccc(OCc2ccc3ccccc3n2)c1 result_type="melting point" val="109 °C"
compound=COc1cc(C)ccc1C(=O)O result_type="melting point" val="103 to 104 °C"
compound=Cc1ccc(C(=O)Nc2ccc(CN3CCCC3)c(C(F)(F)F)c2)cc1Br result_type="melting point" val="168 to 170 °C"
compound=Cc1cc(Cn2c(=S)sc3ccccc32)cc(C)c1O result_type="melting point" val="164 to 165 °C"
compound=CCOC(=O)C(=O)Nc1cccc(O)c1C(N)=O result_type="melting point" val="200 to 202 °C"
compound=O=c1ccc(-c2ccsc2)n[nH]1 result_type="melting point" val="169 to 171 °C"
compound=CN(C)C=NC(=N[N+](=O)[O-])N(C)Cc1ccc(Cl)nc1 result_type="melting point" val="85 to 89 °C"
compound=COCc1nc(C=NNC(=S)SC)c[nH]1 result_type="melting point" val="150 to 154 °C"
compound=CCN(CC)C(=O)c1c(CO)ccc(F)c1[Si](C)(C)C result_type="melting point" val="107 to 108 °C"
compound=Cc1cc(O)cc2cc(-c3ccc(O)c(F)c3)oc12 result_type="melting point" val="196 to 198 °C"
compound=CS(=O)(=O)OCCCCCCNc1ccc2nncn2n1 result_type="melting point" val="103 to 105 °C"
compound=CN(C)N=Nc1ccsc1C(N)=O result_type="melting point" val="168 to 170 °C"
compound="COc1cc2c(c(Cl)c1Cl)C(=O)C(CCCCCl)C2 (stereo not drawn)" result_type="melting point" val="92 °C"
compound="CN(C(=O)C(Cc1c[nH]c2ccccc12)NC(=O)OC(C)(C)C(Cl)(Cl)Cl)C(Cc1ccccc1)C(N)=O (racemic)" result_type="melting point" val="100 to 105 °C"
compound="Cc1c(C)c2c(c(C)c1N)C(c1ccc(C(C)C)cc1)CO2 (stereo not drawn)" result_type="melting point" val="171 to 173 °C"
compound=COC(=O)[C@H](CO)NC(=O)[C@H](Cc1ccccc1)NC(=O)OC(C)(C)C result_type="melting point" val="90 to 93 °C"
compound=CC(C)S(=O)(=O)c1ccccc1Nc1nc(Nc2ccc3c(c2)C(C)(C)CCC(=O)N3C)ncc1Cl result_type="melting point" val="195 to 197 °C"
compound="CN1CC(CN2CC(=O)NC2=O)C=C2c3cccc4[nH]cc(c34)CC21 (stereo not drawn)" result_type="melting point" val="282 to 284 °C"
compound=Fc1cc(Cl)c(CCl)cc1-c1ncnc(C(F)F)c1Cl result_type="melting point" val="132 to 133 °C"
compound="OC(CN1CCN(c2ccncc2)CC1)c1ccc2nonc2c1 (stereo not drawn)" result_type="melting point" val="159 to 162 °C"
compound="Cn1c(=O)oc2cc(C(O)CBr)cnc21 (stereo not drawn)" result_type="melting point" val="127 to 129 °C"
compound="COc1cc2c(c(OC)c1)C1=C(CC2)C2=CCC(OC(C)=O)C2(C)CC1 (stereo not drawn)" result_type="melting point" val="122 to 124 °C"
compound=Cc1cc(SC2=C(O)CC(CCc3cccc(O)c3)(CCc3cccc(O)c3)OC2=O)c(C(C)(C)C)cc1CO result_type="melting point" val="92 to 94 °C"
compound=O=C1c2cc(Cl)ccc2-n2cnc(-c3noc(CCl)n3)c2[C@@H]2CCN12 result_type="melting point" val="238 to 241 °C"
compound=COc1ccc(S/C(=C/C(=O)NO)CCCCc2ccccc2)cc1OC result_type="melting point" val="148 to 150 °C"
compound=COc1cc(C)c2c(c1C)CC(=O)N2 result_type="melting point" val="262 to 263 °C"
compound=CCCCCCCCCCCCCCC[C@H]1O[C@@H]1CO result_type="melting point" val="77 to 78 °C"
compound=COC1=C(OC)C(=O)C2=C(CC(CCCCCCCCN3CCN(Cc4ccccc4)CC3)C2)C1=O result_type="melting point" val="80 to 81 °C"
compound=N[C@H]1CCN(c2ccc3c(NC(=O)CCc4ccccc4Cl)c(Cl)ccc3n2)C1 result_type="melting point" val="200 to 212 °C"
compound=CCN(CC)C(=O)COc1cc2ccccc2c(-c2ccccc2)n1 result_type="melting point" val="105 °C"
compound=N#Cc1ccc(C(=O)c2cc(C(F)(F)F)ccc2S)cc1 result_type="melting point" val="210 °C"
compound=CCCc1c(OCCCS(=O)(=O)c2ccc(C(=O)OC)cn2)ccc(C(C)=O)c1O result_type="melting point" val="114 to 116 °C"
compound=CC(=O)OC1CC(C)(C)N(OC(=NC2CCCCC2)N(C(=O)c2ccccc2)C2CCCCC2)C(C)(C)C1 result_type="melting point" val="147 to 152 °C"
compound=CSc1nn2c(N)cc(C)nc2c1S(=O)(=O)c1ccccc1 result_type="melting point" val="> 230 °C"
compound="C#CC(=O)N1CCN(C(=O)OC2C3=C(OCCS3)C(=O)N2c2ccc3ccc(Cl)nc3n2)CC1 (stereo not drawn)" result_type="melting point" val="302 °C"
compound=CC(C)Cc1ccc2ccc(N)nc2n1 result_type="melting point" val="125 to 127 °C"
compound=CNc1cncc(C(F)(F)F)c1 result_type="melting point" val="69 to 70 °C"
compound=O=c1[nH]c2cscc2c(=O)n1CCCCN1CCN(c2cccc(C(F)(F)F)c2)CC1 result_type="melting point" val="126 to 128 °C"
compound=O=C(CO)Nc1cc(-c2ccncc2)c[nH]c1=O result_type="melting point" val="271 to 274 °C"
